Data provenance: patent US6376670B1

- Tested on: methicillin-resistant Staphylococcus aureus (MRSA)
- assay-details: Determination of MIC values (BHI broth, 96 well microtiter plate)
- Type: cell-based
- condition-label: Staphylococcus aureus, MRSA; BHI broth, overnight 37° C.; read-out: MIC MRSA
- Protocol: Stock solutions of compounds are prepared with a concentration of 10 mg/mL. These solutions are then diluted 1:4 to give a concentration of 2.5 mg/mL. The compounds are then serially diluted 1:2 for 6 iterations. The concentrations made for each compound are 2.5, 1.25, 0.625, 0.3125, 0.156, 0.078, and 0.039 mg/mL. A control sample (no compound) is run along with each compound tested. All dilutions are made in DMSO. […]
Documented MIC across a set of compounds

>  <compound>
NCc1ccc(CNC(=O)c2cc(-c3c[nH]c4ccc(Cl)cc34)nc3cc(Br)ccc23)cc1

>  <test-target>
methicillin-resistant Staphylococcus aureus (MRSA)

>  <MIC>
< 7 µg/mL

$$$$
>  <compound>
Cn1cc(-c2ccc3cc(Cl)ccc3n2)c2ccc(F)cc21

>  <test-target>
methicillin-resistant Staphylococcus aureus (MRSA)

>  <MIC>
> 25 µg/mL

$$$$
>  <compound>
Cn1cc(-c2cc(C(=O)NCCN)c3ccc(F)cc3n2)c2cc(Br)ccc21

>  <test-target>
methicillin-resistant Staphylococcus aureus (MRSA)

>  <MIC>
< 7 µg/mL

$$$$

MIC lookup needed for `NCc1ccc(CNC(=O)c2cc(-c3c[nH]c4ccc(Br)cc34)nc3ccc(C#CCN4CCCC4)cc23)cc1` , thanks. < 7 µg/mL

Follow-up item: Cn1cc(-c2cc(C(=O)NCC3CCCC(CN)C3)c3cc(Cl)ccc3n2)c2cc(Br)ccc21 (stereo not drawn) < 7 µg/mL
